Some molecules, each annotated with its measured growth inhibition.
# Tested on: HGGX6 (H3.3 G34R paediatric high-grade glioma line)
# EXPERIMENTAL DETAILS: growth inhibition (% activity, log2 RLU normalised to DMSO / staurosporine); higher = more growth inhibition
# PARTICULARS: 33 µM
MEASURED METRIC: growth inhibition

>>> endpoint_value("CC(C)CC(N)=O")
"1.61%"
>>> endpoint_value("COc1ccc2cccc(CCNC(C)=O)c2c1")
"-4.45%"
>>> endpoint_value("Cc1ccc(S(=O)(=O)NC(=O)NN2CC3CCCC3C2)cc1 (configuration not stated)")
"-0.55%"
>>> endpoint_value("C=CC[N+]1([C@H]2C[C@H]3[C@@H]4CC[C@H]5C[C@H](O)[C@@H](N6CCOCC6)C[C@]5(C)[C@H]4CC[C@]3(C)[C@H]2OC(C)=O)CCCC1")
"1.87%"
>>> endpoint_value("N[C@H](C(=O)O)[C@H](O)c1ccc(O)c(O)c1")
"-1.74%"
>>> endpoint_value("O=c1cc[nH]c(=O)[nH]1")
"0.91%"
>>> endpoint_value("Nc1c(CC(=O)O)cccc1C(=O)c1ccccc1")
"-1.13%"
>>> endpoint_value("CCc1cc2c(cc1CC)CC(NC[C@H](O)c1ccc(O)c3[nH]c(=O)ccc13)C2")
"-1.65%"
>>> endpoint_value("Cc1ncc([N+](=O)[O-])n1CCO")
"-4.16%"
>>> endpoint_value("COc1cc(C(=O)NS(=O)(=O)c2ccccc2C)ccc1Cc1cn(C)c2ccc(NC(=O)OC3CCCC3)cc12")
"-2.28%"
>>> endpoint_value("C[N+]1(C)CCC(=C(c2ccccc2)c2ccccc2)CC1")
"-0.684%"
>>> endpoint_value("Nc1c2ccccc2nc2ccccc12")
"14.7%"
>>> endpoint_value("CC(C)(Oc1ccc(CCNC(=O)c2ccc(Cl)cc2)cc1)C(=O)O")
"1.74%"
>>> endpoint_value("Cc1ccc(C)c(OCCCC(C)(C)C(=O)O)c1")
"-0.472%"
>>> endpoint_value("Clc1ccc(CCC(Cn2ccnc2)Sc2c(Cl)cccc2Cl)cc1 (configuration not stated)")
"10.2%"
>>> endpoint_value("C[C@@H]1C/C=C/C=C/C=C/C=C/[C@H](O[C@@H]2O[C@H](C)[C@@H](O)[C@H](N)[C@@H]2O)C[C@@H]2O[C@](O)(C[C@@H](O)C[C@H]3O[C@@H]3/C=C/C(=O)O1)C[C@H](O)[C@H]2C(=O)O")
"0.734%"
>>> endpoint_value("COC(=O)CCc1ccc(OCC(O)CNC(C)C)cc1 (configuration not stated)")
"1.03%"
>>> endpoint_value("CNS(=O)(=O)CCc1ccc2[nH]cc(C3CCN(C)CC3)c2c1")
"-0.244%"
>>> endpoint_value("CC(=O)OCC[N+](C)(C)C")
"1.69%"
>>> endpoint_value("CC(=O)[C@H]1CC[C@H]2[C@@H]3CCC4=CC(=O)CC[C@]4(C)[C@H]3CC[C@]12C")
"5.84%"
>>> endpoint_value("O=S(=O)(O)Oc1ccc(C(c2ccc(OS(=O)(=O)O)cc2)c2ccccn2)cc1")
"-1.53%"
>>> endpoint_value("N=C(N)c1ccc2cc(OC(=O)c3ccc(N=C(N)N)cc3)ccc2c1")
"1.06%"
